system_under_test: Complement component 3 (C3) (Homo sapiens) (UniProt P01024+P01024)
Sequence (P01024 23-667, chain 1 of 2): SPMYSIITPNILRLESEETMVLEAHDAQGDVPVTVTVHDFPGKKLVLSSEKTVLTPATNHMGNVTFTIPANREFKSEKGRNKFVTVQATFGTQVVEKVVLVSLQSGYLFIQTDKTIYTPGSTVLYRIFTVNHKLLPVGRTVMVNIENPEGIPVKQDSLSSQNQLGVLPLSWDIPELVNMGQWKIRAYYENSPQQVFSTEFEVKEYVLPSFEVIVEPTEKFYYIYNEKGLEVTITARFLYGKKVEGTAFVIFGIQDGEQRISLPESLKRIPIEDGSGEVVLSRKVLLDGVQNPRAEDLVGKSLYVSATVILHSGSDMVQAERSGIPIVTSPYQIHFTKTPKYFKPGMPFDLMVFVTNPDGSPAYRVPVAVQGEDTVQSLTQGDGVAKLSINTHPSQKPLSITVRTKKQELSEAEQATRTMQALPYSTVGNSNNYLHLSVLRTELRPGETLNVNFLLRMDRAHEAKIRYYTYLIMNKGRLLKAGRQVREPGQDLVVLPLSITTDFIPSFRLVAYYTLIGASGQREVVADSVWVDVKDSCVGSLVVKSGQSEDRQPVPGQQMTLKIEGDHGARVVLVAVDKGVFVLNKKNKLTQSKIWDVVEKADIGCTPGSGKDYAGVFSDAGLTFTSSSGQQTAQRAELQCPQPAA
Sequence (P01024 672-1663, chain 2 of 2): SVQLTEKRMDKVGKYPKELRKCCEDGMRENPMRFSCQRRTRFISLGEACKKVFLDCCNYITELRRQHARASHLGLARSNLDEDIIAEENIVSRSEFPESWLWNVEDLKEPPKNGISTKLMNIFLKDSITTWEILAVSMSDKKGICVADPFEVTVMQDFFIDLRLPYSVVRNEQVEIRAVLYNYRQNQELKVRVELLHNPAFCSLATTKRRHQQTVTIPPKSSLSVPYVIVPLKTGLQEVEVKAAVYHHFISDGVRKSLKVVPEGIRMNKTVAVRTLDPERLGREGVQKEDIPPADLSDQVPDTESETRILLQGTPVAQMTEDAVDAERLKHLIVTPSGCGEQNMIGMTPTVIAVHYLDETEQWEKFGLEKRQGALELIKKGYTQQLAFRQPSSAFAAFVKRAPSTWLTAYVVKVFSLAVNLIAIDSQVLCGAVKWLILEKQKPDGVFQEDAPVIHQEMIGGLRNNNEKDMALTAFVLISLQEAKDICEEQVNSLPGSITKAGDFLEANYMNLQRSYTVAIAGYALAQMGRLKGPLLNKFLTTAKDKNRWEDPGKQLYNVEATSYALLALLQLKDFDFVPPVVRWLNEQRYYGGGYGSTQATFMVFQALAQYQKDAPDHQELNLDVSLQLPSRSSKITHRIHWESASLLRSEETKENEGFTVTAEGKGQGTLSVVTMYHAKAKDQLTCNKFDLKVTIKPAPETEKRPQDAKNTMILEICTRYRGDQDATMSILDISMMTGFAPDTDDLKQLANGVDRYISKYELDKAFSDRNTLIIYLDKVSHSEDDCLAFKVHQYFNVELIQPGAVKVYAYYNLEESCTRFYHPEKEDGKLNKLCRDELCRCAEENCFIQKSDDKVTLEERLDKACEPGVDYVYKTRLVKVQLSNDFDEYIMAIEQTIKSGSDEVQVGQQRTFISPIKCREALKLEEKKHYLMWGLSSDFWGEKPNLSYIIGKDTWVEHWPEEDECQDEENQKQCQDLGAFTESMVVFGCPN
experiment_summary: filter
condition_summary: all U = NapdU; 2'-OMe at 1,2,3,5,7,10,13,26,27,28; 3'-3' idT; SB18T0.01, 37C
reported_metric: pKd
Please note pKd is a logarithmic value: minus log10 of concentration in mol/L. Answer with that number alone.

Give Complement component 3 (C3) (Homo sapiens) (UniProt P01024+P01024) pKd for CGGUGACUCAAUAGUCCGUACGUUCCCG [8491-94_90]
11.37

----------
system_under_test: Complement component 3 (C3) (Homo sapiens) (UniProt P01024+P01024)
experiment_summary: filter
condition_summary: P = NapdU (all U); 2'-OMe G22; 3'-3' idT; SB18T0.01, 5 mM MgCl2, 37 C
reported_metric: pKd
Please note pKd is a logarithmic value: minus log10 of concentration in mol/L. Answer with that number alone.

pKd lookup needed for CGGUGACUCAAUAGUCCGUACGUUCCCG [8491-94_80] , thanks.
10.17
